# target-entity: SpLsm2 (of SpLsm2/3);SpLsm3 (of SpLsm2/3) (Schizosaccharomyces …, UniProt O94408;Q9Y7M4 1-96;1-93, |)
# Sequence (O94408 whole entry, chain 1 of 2): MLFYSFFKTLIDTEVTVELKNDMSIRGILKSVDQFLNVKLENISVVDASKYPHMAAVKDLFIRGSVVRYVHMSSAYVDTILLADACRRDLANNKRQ
# Sequence (Q9Y7M4 whole entry, chain 2 of 2): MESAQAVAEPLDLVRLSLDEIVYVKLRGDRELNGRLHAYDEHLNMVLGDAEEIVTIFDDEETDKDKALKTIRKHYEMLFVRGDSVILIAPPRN
# assay-procedure: fluorescence anisotropy; FA: 20 mM Hepes pH 7.5, 100 mM NaCl, 25 C, 0.1 uM RNA; SPR (Biacore 3000): 20 mM Hepes pH 7.5, 100 mM NaCl, 25 C, 1 uM protein
# conditions-used: protein: recombinant;recombinant; tags: N-terminal His6;none; label: 5' 6-FAM; single strand
property-label: pKd
Note on units: pKd is unitless, being -log10 of a concentration expressed in mol/L.

Asked: I am curious: what pKd value has been reported for UUUUUUUUUUUUUUU (ssRNA) [U15 (FAM)] ?
Given back: 5.40
